- measuredOn: human CDK4 and genetically truncated (1-264) cyclin D3 (Homo sapiens, UniProt P11802)
- Sequence (P11802 whole entry, the tested form may be a part): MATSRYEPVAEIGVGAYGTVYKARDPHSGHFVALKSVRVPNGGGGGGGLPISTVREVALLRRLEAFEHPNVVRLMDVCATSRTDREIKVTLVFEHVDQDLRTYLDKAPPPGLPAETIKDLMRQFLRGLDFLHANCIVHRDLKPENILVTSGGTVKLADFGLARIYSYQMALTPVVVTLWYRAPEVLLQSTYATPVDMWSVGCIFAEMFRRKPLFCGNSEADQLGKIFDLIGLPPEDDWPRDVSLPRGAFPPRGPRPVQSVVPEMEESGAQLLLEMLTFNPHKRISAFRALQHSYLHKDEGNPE
- Sequence (P30281 1-264 partner): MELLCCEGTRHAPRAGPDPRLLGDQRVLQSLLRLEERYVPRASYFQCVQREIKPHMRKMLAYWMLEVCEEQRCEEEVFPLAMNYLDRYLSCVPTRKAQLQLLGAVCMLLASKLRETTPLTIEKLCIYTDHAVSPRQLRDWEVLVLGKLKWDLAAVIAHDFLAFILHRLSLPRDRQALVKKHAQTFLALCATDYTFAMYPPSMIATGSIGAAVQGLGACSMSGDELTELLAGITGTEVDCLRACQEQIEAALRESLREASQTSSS
- method: Inhibition of CDK4/Cyclin D Retinoblastoma Kinase Activity
- Type: biochemical
- assayConditions: apparent Ki, CDK4/truncated cyclin D3, Rb fragment substrate, 25 μM ATP
Counter-ions that a name gives are not always drawn.
Exam item: assign T to entries whose Ki is below 0.5 nM and F to entries at or above 0.5 nM. Note that a value of exactly 0.5 nM receives F.

Please review the entries below; each comes with its answer.
molecule="CN(C)CCc1ncc(S(=O)(=O)N2CCC(Nc3nc(N)c(C(=O)c4c(F)cccc4F)s3)CC2)cn1 [Example N12, Hydrochloride Salt]" measuredon="human CDK4 and genetically truncated (1-264) cyclin D3 (Homo sapiens, UniProt P11802)" classification=F
molecule=Nc1nc(NC2CCN(S(=O)(=O)CCCn3ccnn3)CC2)sc1C(=O)c1c(F)cccc1F measuredon="human CDK4 and genetically truncated (1-264) cyclin D3 (Homo sapiens, UniProt P11802)" classification=F
molecule="CC1=NC(C)CN1c1ccc(S(=O)(=O)N2CCC(Nc3nc(N)c(C(=O)c4c(F)cccc4F)s3)CC2)cn1 (centres unmarked) [Example G23, Hydrochloride]" measuredon="human CDK4 and genetically truncated (1-264) cyclin D3 (Homo sapiens, UniProt P11802)" classification=T
molecule=N#Cc1ccc(S(=O)(=O)N2CCC(Nc3nc(N)c(C(=O)c4c(F)cccc4F)s3)CC2)cc1 measuredon="human CDK4 and genetically truncated (1-264) cyclin D3 (Homo sapiens, UniProt P11802)" classification=F
molecule=COc1ccc(S(=O)(=O)N2CCC(Nc3nc(N)c(C(=O)c4c(F)cccc4F)s3)CC2)cc1OC measuredon="human CDK4 and genetically truncated (1-264) cyclin D3 (Homo sapiens, UniProt P11802)" classification=F

Quick check: does Nc1nc(NC2CCN(S(=O)(=O)c3ccc(SCCN4CCOCC4)nc3)CC2)sc1C(=O)c1c(F)cccc1F [Example L7, Dihydrochloride] have Ki under 0.5 nM?
F

Quick check: does CC(C)NC(=O)N1CCC(Nc2nc(N)c(C(=O)c3c(F)cccc3F)s2)CC1 have Ki under 0.5 nM?
F

Quick check: does CCN1CCN(CCCS(=O)(=O)N2CCC(Nc3nc(N)c(C(=O)c4c(F)cccc4F)s3)CC2)CC1 have Ki under 0.5 nM?
F
